Target: pooled human IgG (human IgG1, 2, 3 and 4)
measurement.label: Enzyme Activity Endpoint Assay: scIgG (ng/µL)

{"protein": "PRT-662 (protein) MQITSVWTKGVTPLTPEQFRYNNEDVFHAPYLAHQGWYDITKAFDGKDNLLCGAATAGNMLHWWFDQNKTEIEAYLSKHPEKQKIIFNNQELFDLRAAINTKDSQTNSQLFNYFRDKAFPNLSARQLGVMPDLVLDMFINGYYLNVFKTQSTDVNRPYQDKDKRGGIFDAVFTRGDQTTLLTARHDLKNKGLNDISTLIKQELTEGRALALSHTYANVSISHVINLWGADFNAEGNLEAIYVTDSDANASIGMKKYFVGINASGHVAISAKKIEGENIGAQVLGLFTLSSGKDIWQKLSLEHHHHHH", "value.unit": "ng/µL", "readout.value": 0}
{"protein": "PRT-514 (protein) MITSVWTKGVTPPTDFIKGEDVFHAPYKAGQGWYDITKAFDGGDDLLCGAATAGNMLHWWFDQNKEEIEAYLKKHPEKQKIMFGDQELLDVRKVINTKDSQTNSALFNYFKDKAFPNLSARRLGVMPDLVLDMFINGYYLNVYKTQTTDVNRQEQTKDRRGGIFDAVFGRGDQTKLLTERHDFKEKTLNEISQLIKQELTEGKALGLSHTYANVRINHVINLWGADFDAEGNLEAIYVTDSDSNASIGMKKYFVGVNSAGKVAISAKEIKEDNIGAQVLGLFTLSTGQKIWNKTNLEHHHHHH", "value.unit": "ng/µL", "readout.value": 0}
